target of assay: recombinant human MASP2 active protease (amino acids 297-686, C-terminal His Tag) (human, UniProt O00187 297-686)
Sequence (O00187 other isoform, or with tags, fused parts or gaps limits assumed): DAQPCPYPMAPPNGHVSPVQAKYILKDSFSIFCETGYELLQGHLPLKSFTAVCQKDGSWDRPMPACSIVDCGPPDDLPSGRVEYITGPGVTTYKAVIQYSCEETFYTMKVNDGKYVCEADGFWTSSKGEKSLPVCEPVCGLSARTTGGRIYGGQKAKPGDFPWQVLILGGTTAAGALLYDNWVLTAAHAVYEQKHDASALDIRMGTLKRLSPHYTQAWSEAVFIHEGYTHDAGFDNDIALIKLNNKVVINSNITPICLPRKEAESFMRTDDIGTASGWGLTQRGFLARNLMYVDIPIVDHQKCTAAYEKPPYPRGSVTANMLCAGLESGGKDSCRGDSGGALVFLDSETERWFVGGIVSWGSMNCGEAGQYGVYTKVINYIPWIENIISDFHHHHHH
test name: cell-based or functional assay
Bridge positions count the residues as written; N and C are the ends. Square brackets hold non-standard residues; d marks the D form. Ends that are not written are not given here. His(τ-Bzl) = N[C@@H](Cc1cn(Cc2ccccc2)cn1)C(=O)O; Oic = O=C(O)[C@@H]1C[C@@H]2CCCC[C@@H]2N1; tBuAla = CC(C)(C)C[C@H](N)C(=O)O; (3-Me)H = L-3-methylhistidine; Pen = CC(C)(S)[C@H](N)C(=O)O; Sar = CNCC(=O)O
Documented human MASP2 IC50 across a set of binders
outcome measure: human MASP2 IC50 (nM)

binder | val
[(3-Me)H]ICSRSLP[Oic]I[Pen]IP-NH2 (disulfide 3-11) [Example 444: ((3-Me)H)-IC+SRSLP-(Oic)-I-(Pen)+IP-NH2] | 61
[Sar]ICSRS[tBuAla]PPI[Pen]IP[His(τ-Bzl)]-OH (disulfide 3-11; N-terminus assumed; SMILES CC[C@H](C)[C@H](NC(=O)CNC)C(=O)N[C@H]1CSSC(C)(C)[C@@H](C(=O)N[C@H](C(=O)N2CCC[C@H]2C(=O)N[C@@H](Cc2cn(Cc3ccccc3)cn2)C(=O)O)[C@@H](C)CC)NC(=O)[C@H]([C@@H](C)CC)NC(=O)[C@@H]2CCCN2C(=O)[C@@H]2CCCN2C(=O)[C@H](CC(C)(C)C)NC(=O)[C@H](CO)NC(=O)[C@H](CCCNC(=N)N)NC(=O)[C@H](CO)NC1=O) [Example 447: ((N-Me)G)-IC+SRS-((tBu)A)-PPI-(Pen)+IP-((1-Bn)H)-OH] | 65.5
[Sar]ICSRSLP[Oic]I[Pen]IPN-OH (disulfide 3-11; N-terminus assumed; SMILES CC[C@H](C)[C@H](NC(=O)CNC)C(=O)N[C@H]1CSSC(C)(C)[C@@H](C(=O)N[C@H](C(=O)N2CCC[C@H]2C(=O)N[C@@H](CC(N)=O)C(=O)O)[C@@H](C)CC)NC(=O)[C@H]([C@@H](C)CC)NC(=O)[C@@H]2C[C@@H]3CCCC[C@@H]3N2C(=O)[C@@H]2CCCN2C(=O)[C@H](CC(C)C)NC(=O)[C@H](CO)NC(=O)[C@H](CCCNC(=N)N)NC(=O)[C@H](CO)NC1=O) [Example 454: ((N-Me)G)-IC+SRSLP-(Oic)-I-(Pen)+IPN-OH] | 99

These data points were gathered from patent US20210246166A1.
